src = patent US11945792B2

- Assay summary: Equilibrium solubility in water at room temperature for 24 hours
- Type: physicochemical
- Condition summary: residual solids by XRPD after 24 hours in water at room temperature
- Protocol: 10 mg of Type A, B, D, and F samples each was added into a 1.5-mL glass vial, and 1.0 mL of water was then added. The mixture was rolled at 25 rpm at room temperature for 24 hours. The suspension was centrifuged and filtered to isolate the supernatant for HPLC concentration and purity testing and the residual solids were characterized by XRPD.
Measurement type: Form Change

1) C=CC(=O)N1CCC(c2ccc(C(N)=O)c(-c3ccc(Oc4ccccc4)cc3)n2)CC1 [Type F]: No
2) C=CC(=O)N1CCC(c2ccc(C(N)=O)c(-c3ccc(Oc4ccccc4)cc3)n2)CC1 [Type D]: No
3) C=CC(=O)N1CCC(c2ccc(C(N)=O)c(-c3ccc(Oc4ccccc4)cc3)n2)CC1 [Type B]: No

----------
- Assay summary: Solid-state stability assessment on storage (XRPD and HPLC purity)
- Format: physicochemical
- Condition summary: 25° C./60% RH (open)/1 week
Measurement type: Purity/initial purity (%)

1. C=CC(=O)N1CCC(c2ccc(C(N)=O)c(-c3ccc(Oc4ccccc4)cc3)n2)CC1 [Type B]: 99.5
2. C=CC(=O)N1CCC(c2ccc(C(N)=O)c(-c3ccc(Oc4ccccc4)cc3)n2)CC1 [Type D]: 99.9
3. C=CC(=O)N1CCC(c2ccc(C(N)=O)c(-c3ccc(Oc4ccccc4)cc3)n2)CC1 [Type A]: 100.0
4. C=CC(=O)N1CCC(c2ccc(C(N)=O)c(-c3ccc(Oc4ccccc4)cc3)n2)CC1 [Type F]: 100.0

----------
- Assay summary: Solid-state stability assessment on storage (XRPD and HPLC purity)
- Assay type: physicochemical
- Condition summary: 40° C./75% RH (open)/1 week
- Method: Approximate 10 mg of Type A sample was added into each 1.5-mL glass vial and stored at 80° C. (closed) for 1 day, 25° C./60% RH and 40° C./75% RH (open) for 1 week, then tested by XRPD and HPLC purity. Approximate 4 mg of Type B sample was added into each 1.5-mL glass vial and stored at 80° C. (closed) for 1 day, 25° C./60% RH and 40° C./75% RH (open) for 1 week, then tested by XRPD and HPLC purity. […]
Measurement type: Purity/initial purity (%)

1) C=CC(=O)N1CCC(c2ccc(C(N)=O)c(-c3ccc(Oc4ccccc4)cc3)n2)CC1 [Type B]: 99.7
2) C=CC(=O)N1CCC(c2ccc(C(N)=O)c(-c3ccc(Oc4ccccc4)cc3)n2)CC1 [Type F]: 100.0
3) C=CC(=O)N1CCC(c2ccc(C(N)=O)c(-c3ccc(Oc4ccccc4)cc3)n2)CC1 [Type D]: 99.9
4) C=CC(=O)N1CCC(c2ccc(C(N)=O)c(-c3ccc(Oc4ccccc4)cc3)n2)CC1 [Type A]: 100.1
